Numbers sourced from PubChem BioAssay AID1159580.

# assay-notes: chemical genetic growth profiling, strain panel (AID 1159580);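 note: tested at 20 µM; growth read once vehicle control cultures reached saturation at 30 °C; 1 = growth at the plate median or of vehicle wells; lower values mean less growth of the strain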
# test-settings: S. cerevisiae deletion strains, growth OD, locus YOL012C, strain htz1
The campaign covered roughly 5,500 compounds. About 2,000 (36%) were called active. Inconclusive results (about 18%) are left out. The list shows a part of the results.
Measured normalized growth, listed per entry for reference.
When you answer, write just the number.

[
  {
    "compound": "CC[C@@H](CO)NC(=O)[C@@H]1C=C2c3cccc4[nH]cc(c34)C[C@H]2N(C)C1",
    "measured": 0.998
  },
  {
    "compound": "CC(=O)O[C@H]1CC[C@]2(C)C3CC[C@@]4(C)C(CC5O[C@@]6(CCC(C)CO6)[C@@H](C)C54)C3CC[C@H]2C1 (stereo partly specified)",
    "measured": 1.12
  },
  {
    "compound": "CCOC([O-])=Nc1c[n+](N2CCOCC2)no1",
    "measured": 0.747
  },
  {
    "compound": "CCN(CC)CCNC(=O)c1cc(Cl)c(N)cc1OC",
    "measured": 1.1
  },
  {
    "compound": "COc1cc2c(cc1O)CCNC2C (stereo unspecified)",
    "measured": 0.945
  }
]

# query: normalized growth of entry `NC(=O)NO`
0.591

Would you mind telling me what normalized growth value was observed for CC(=O)O[C@H]1CC[C@]2(C)C3CC(=O)[C@]4(C)C(C(C)=O)=CCC4C3CC[C@H]2C1 (stereo partly specified) ?
1.19

Which normalized growth is listed for CC1(C)C(=O)[C@@H]2O[C@@H]2[C@@]2(C)C1CC(=O)[C@]1(C)C2CC[C@@]2(C)[C@H](c3ccoc3)OC(=O)[C@H]3O[C@]321 (stereo partly specified) ?
0.769

Returns the measured normalized growth for the input compound. Input: `COc1cc2cc3c4cc(OC)c(OC)cc4cc[n+]3c(C)c2cc1OC`
1.07

Item under review: `CC(=O)c1cc2c(cc1O)OC(C)(C)C=C2` . Reported normalized growth?
0.862

Recorded normalized growth for `CN1CCN(CC(=O)N2c3ccccc3C(=O)Nc3cccnc32)CC1` , please?
0.832

Which normalized growth value belongs to `COc1cnc(NS(=O)(=O)c2ccc(N)cc2)nc1` ?
0.813

For the compound `Cc1cc(C(C)(C)C)c(O)c(C)c1CC1=NCCN1` , what normalized growth is on record?
1.23
